Tested on: SW480 human colon adenocarcinoma cells
Experiment: Sulforhodamine B (SRB) cytotoxicity assay, SW480
Type: cell-based
Conditions: Homo sapiens, SW480, 24 h, 24 h, SRB, mean ± SE
Protocol: To determine the cytotoxic effect of the synthesized hybrids, they were evaluated against SW480 human colon adenocarcinoma cells, its metastatic derivative SW620 and the non-malignant CHO-K1 cell line, through the sulforhodamine B assay. […] Cytotoxicity of the synthesized hybrids, lead and reference compounds was evaluated through Sulforhodamine B (SRB) assay, a colorimetric test that is based on staining of total cellular protein of adherent cells. […]
In plain terms, low IC50, meaning strictly below 60 µM, gives 1, and everything else gives 0.

Solved cases below.
COc1cc(/C=C/c2ccc(C(=O)/C=C/c3ccc(O)c(OC)c3)cc2)cc(OC)c1 [Hybrid 3h] = 1
COc1ccc(/C=C/c2ccc(C(=O)/C=C/c3ccc(O)c(OC)c3)cc2)c(OC)c1 [Hybrid 3e] = 1
COc1cc(/C=C/C(=O)c2ccc(/C=C/c3ccc(OC)c(OC)c3)cc2)ccc1O [Hybrid 3i] = 1
Oc1ccc(/C=C/c2cc(O)cc(O)c2)cc1 [Resveratrol] = 0
COc1cc(/C=C/C(=O)c2ccc(/C=C/c3cc(OC)c(OC)c(OC)c3)cc2)ccc1O [Hybrid 3k] = 0
COc1cc(/C=C/C(=O)c2ccc(/C=C/c3cccc(OC)c3OC)cc2)ccc1O [Hybrid 3d] = 1

Query string: hey, is IC50 for COc1cc(/C=C/C(=O)c2ccc(/C=C/c3ccc(O)c(OC)c3)cc2)ccc1O [Hybrid 3j] lower than 60 µM or not?
Result string: 1

Query string: Same thing, different molecule: COc1cc(/C=C/C(=O)c2ccc(/C=C/c3ccc([N+](=O)[O-])cc3)cc2)ccc1O [Hybrid 3c]
Result string: 1

Query string: Same thing, different molecule: COc1cc(/C=C/C(=O)c2ccc(/C=C/c3ccc(O)cc3)cc2)ccc1O [Hybrid 3a]
Result string: 0

Query string: Same thing, different molecule: COc1cc(/C=C/C(=O)c2ccc(/C=C/c3cc(OC)c(O)c(OC)c3)cc2)ccc1O [Hybrid 3l]
Result string: 0
